So I've got a bunch of compounds here, and I need their Swelling degree 3 h values.
test system: carrageenan-induced toe swelling; test: Carrageenan-induced toe swelling in rats; format: in vivo; settings: SD rats, 4.0 mg/kg once a day for 3 d, 3 h after carrageenan
Peptide text beside a SMILES is read from it. * marks the point of attachment. X65 = O=C1C=CC(=O)N1c1cccc(CCCCCCCCCCCCC(=O)*)c1; X71 = O=C1C=CC(=O)N1c1cccc(CCCCCC(=O)*)c1; X46 = O=C1C=CC(=O)N1c1cccc(CCCCC(=O)*)c1
Give bare numbers, in mg.

In the examples that follow, each entry is paired with its recorded Swelling degree 3 h.
C[C@H](NC(=O)CNC(=O)[C@H](CCCNC(=N)N)NC(=O)CCCCCc1cccc(N2C(=O)C=CC2=O)c1)C(=O)N[C@@H](CC(=O)O)C(=O)N[C@@H](CCCNC(=N)N)C(=O)N[C@@H](C)C(=O)NCC(=O)NCC(=O)NCC(=O)NCC(=O)N[C@@H](CCCNC(=N)N)C(=O)NCC(=O)N[C@@H](CC(=O)O)C(=O)O [X29] (X71-RGADRAGGGGRGD-OH); 0.34
C[C@H](NC(=O)CNC(=O)[C@H](CCCNC(=N)N)NC(=O)CCCCc1cccc(N2C(=O)C=CC2=O)c1)C(=O)N[C@@H](CC(=O)O)C(=O)N[C@@H](CCCNC(=N)N)C(=O)N[C@@H](C)C(=O)NCC(=O)NCC(=O)NCC(=O)NCC(=O)N[C@@H](CCCNC(=N)N)C(=O)NCC(=O)N[C@@H](CC(=O)O)C(=O)O [X28] (X46-RGADRAGGGGRGD-OH); 0.34

Please examine the following record next.
Ask: What value of Swelling degree 3 h has been reported for the following compound? C[C@H](NC(=O)CNC(=O)[C@H](CCCNC(=N)N)NC(=O)CCCCCCCCCCCCc1cccc(N2C(=O)C=CC2=O)c1)C(=O)N[C@@H](CC(=O)O)C(=O)N[C@@H](CCCNC(=N)N)C(=O)N[C@@H](C)C(=O)NCC(=O)NCC(=O)NCC(=O)NCC(=O)N[C@@H](CCCNC(=N)N)C(=O)NCC(=O)N[C@@H](CC(=O)O)C(=O)O [X36] (X65-RGADRAGGGGRGD-OH)
Reply: 0.33

====

test: Half-lives and pharmacokinetic parameters of polypeptides vs HM-1; conditions: in vivo
Peptide text beside a SMILES is read from it. * marks the point of attachment. X68 = O=C1C=CC(=O)N1c1ccccc1CCCCCCCCCCCC(=O)*; X5 = O=C1C=CC(=O)N1CCOCCOCCOCCOCCOCCOCC(=O)*
Reported metric: AUC(0-inf)

C[C@H](NC(=O)CNC(=O)[C@H](CCCNC(=N)N)NC(=O)CCCCCCCCCCCc1ccccc1N1C(=O)C=CC1=O)C(=O)N[C@@H](CC(=O)O)C(=O)N[C@@H](CCCNC(=N)N)C(=O)N[C@@H](C)C(=O)NCC(=O)NCC(=O)NCC(=O)NCC(=O)N[C@@H](CCCNC(=N)N)C(=O)NCC(=O)N[C@@H](CC(=O)O)C(=O)O [X23] (X68-RGADRAGGGGRGD-OH); 25600 ng·h/mL

Please examine the following record next.
Ask: What value of AUC(0-inf) has been reported for the following compound? C[C@H](NC(=O)CNC(=O)[C@H](CCCNC(=N)N)NC(=O)COCCOCCOCCOCCOCCOCCN1C(=O)C=CC1=O)C(=O)N[C@@H](CC(=O)O)C(=O)N[C@@H](CCCNC(=N)N)C(=O)N[C@@H](C)C(=O)NCC(=O)NCC(=O)NCC(=O)NCC(=O)N[C@@H](CCCNC(=N)N)C(=O)NCC(=O)N[C@@H](CC(=O)O)C(=O)O [X84] (X5-RGADRAGGGGRGD-OH)
Reply: 29100 ng·h/mL
